# System: HepG2
# experimentalProtocol: Cytotoxicity against human HepG2 cells assessed as inhibition of cell proliferation after 72 hrs by MTT assay
# Assay type: functional, cell-based
# assaySetup: HepG2, 72 h
quantityMeasured: IC50
The reply should read as a number followed by its unit.

CC1(C)CC[C@]2(C(=O)OCCCCCCn3ccc(=O)[nH]c3=O)CC[C@]3(C)C(=CC[C@@H]4[C@@]5(C)CC[C@H](O)C(C)(C)[C@@H]5CC[C@]43C)[C@@H]2C1 | 3980 nM
CC1(C)CC[C@]2(C(=O)OCCCCCCCCn3ccc(=O)[nH]c3=O)CC[C@]3(C)C(=CC[C@@H]4[C@@]5(C)CC[C@H](O)C(C)(C)[C@@H]5CC[C@]43C)[C@@H]2C1 | 1050 nM
CC1(C)CC[C@]2(C(=O)OCCCCCCn3ccc(=O)n(CCCCCCOC(=O)[C@]45CCC(C)(C)C[C@H]4C4=CC[C@@H]6[C@@]7(C)CC[C@H](O)C(C)(C)[C@@H]7CC[C@@]6(C)[C@]4(C)CC5)c3=O)CC[C@]3(C)C(=CC[C@@H]4[C@@]5(C)CC[C@H](O)C(C)(C)[C@@H]5CC[C@]43C)[C@@H]2C1 | 990 nM

# context switch: different compound, same IC50
Result for `CC1(C)CC[C@]2(C(=O)OCCCCn3ccc(=O)[nH]c3=O)CC[C@]3(C)C(=CC[C@@H]4[C@@]5(C)CC[C@H](O)C(C)(C)[C@@H]5CC[C@]43C)[C@@H]2C1` , tested on HepG2, IC50: 4210 nM

* * *

# experimentalProtocol: Cytotoxicity against human BGC823 cells assessed as inhibition of cell proliferation after 72 hrs by MTT assay
# Format: functional, cell-based
# assaySetup: BGC-823, 72 h
For each record, write down the corresponding IC50.
One number for each entry, in nM.

Cc1cn(CCCCCCCCOC(=O)[C@]23CCC(C)(C)C[C@H]2C2=CC[C@@H]4[C@@]5(C)CC[C@H](O)C(C)(C)[C@@H]5CC[C@@]4(C)[C@]2(C)CC3)c(=O)[nH]c1=O | 290
CC1(C)CC[C@]2(C(=O)OCCCCn3ccc(=O)n(CCCCOC(=O)[C@]45CCC(C)(C)C[C@H]4C4=CC[C@@H]6[C@@]7(C)CC[C@H](O)C(C)(C)[C@@H]7CC[C@@]6(C)[C@]4(C)CC5)c3=O)CC[C@]3(C)C(=CC[C@@H]4[C@@]5(C)CC[C@H](O)C(C)(C)[C@@H]5CC[C@]43C)[C@@H]2C1 | 150

# context switch: different molecule, same IC50
Data point: `CC1(C)CC[C@]2(C(=O)OCCCCCCn3ccc(=O)[nH]c3=O)CC[C@]3(C)C(=CC[C@@H]4[C@@]5(C)CC[C@H](O)C(C)(C)[C@@H]5CC[C@]43C)[C@@H]2C1` ; IC50 = 1280

* * *

# Test system: HepG2
# experimentalProtocol: Cytotoxicity against human HepG2 cells assessed as inhibition of cell proliferation after 72 hrs by MTT assay
# Type: functional, cell-based
# assaySetup: HepG2, 72 h
Dear colleague, classification is by IC50, with ranges listed here: low bracket: < 5 µM; middle bracket: ≥ 5 µM and < 10 µM; high bracket: ≥ 10 µM

Take a look at these entries with their results.
CC1(C)CC[C@]2(C(=O)OCCn3ccc(=O)[nH]c3=O)CC[C@]3(C)C(=CC[C@@H]4[C@@]5(C)CC[C@H](O)C(C)(C)[C@@H]5CC[C@]43C)[C@@H]2C1 | high bracket
CC1(C)CC[C@]2(C(=O)OCCCCCCCCn3ccc(=O)n(CCCCCCCCOC(=O)[C@]45CCC(C)(C)C[C@H]4C4=CC[C@@H]6[C@@]7(C)CC[C@H](O)C(C)(C)[C@@H]7CC[C@@]6(C)[C@]4(C)CC5)c3=O)CC[C@]3(C)C(=CC[C@@H]4[C@@]5(C)CC[C@H](O)C(C)(C)[C@@H]5CC[C@]43C)[C@@H]2C1 | high bracket
CC1(C)CC[C@]2(C(=O)OCCCCn3ccc(=O)n(CCCCOC(=O)[C@]45CCC(C)(C)C[C@H]4C4=CC[C@@H]6[C@@]7(C)CC[C@H](O)C(C)(C)[C@@H]7CC[C@@]6(C)[C@]4(C)CC5)c3=O)CC[C@]3(C)C(=CC[C@@H]4[C@@]5(C)CC[C@H](O)C(C)(C)[C@@H]5CC[C@]43C)[C@@H]2C1 | low bracket
Cc1cn(CCCCCCCCOC(=O)[C@@]23CCC(C)(C)C[C@@H]2C2=CC[C@H]4[C@]5(C)CC[C@@H](O)C(C)(C)[C@H]5CC[C@]4(C)[C@@]2(C)CC3)c(=O)n(CCCCCCCCOC(=O)[C@@]23CCC(C)(C)C[C@@H]2C2=CC[C@H]4[C@]5(C)CC[C@@H](O)C(C)(C)[C@H]5CC[C@]4(C)[C@@]2(C)CC3)c1=O | low bracket
Cc1cn(CCCCOC(=O)[C@]23CCC(C)(C)C[C@H]2C2=CC[C@@H]4[C@@]5(C)CC[C@H](O)C(C)(C)[C@@H]5CC[C@@]4(C)[C@]2(C)CC3)c(=O)n(CCCCOC(=O)[C@]23CCC(C)(C)C[C@H]2C2=CC[C@@H]4[C@@]5(C)CC[C@H](O)C(C)(C)[C@@H]5CC[C@@]4(C)[C@]2(C)CC3)c1=O | low bracket

QUERY: For the record `CC1(C)CC[C@]2(C(=O)O)CC[C@]3(C)C(=CC[C@@H]4[C@@]5(C)CC[C@H](O)C(C)(C)[C@@H]5CC[C@]43C)[C@@H]2C1` , report the class its IC50 corresponds to.
RESULT: high bracket

QUERY: For the record `Cc1cn(CCCCCCCCOC(=O)[C@]23CCC(C)(C)C[C@H]2C2=CC[C@@H]4[C@@]5(C)CC[C@H](O)C(C)(C)[C@@H]5CC[C@@]4(C)[C@]2(C)CC3)c(=O)[nH]c1=O` , report the class its IC50 corresponds to.
RESULT: middle bracket

QUERY: For the record `Cc1cn(CCCCCCOC(=O)[C@]23CCC(C)(C)C[C@H]2C2=CC[C@@H]4[C@@]5(C)CC[C@H](O)C(C)(C)[C@@H]5CC[C@@]4(C)[C@]2(C)CC3)c(=O)n(CCCCCCOC(=O)[C@]23CCC(C)(C)C[C@H]2C2=CC[C@@H]4[C@@]5(C)CC[C@H](O)C(C)(C)[C@@H]5CC[C@@]4(C)[C@]2(C)CC3)c1=O` , report the class its IC50 corresponds to.
RESULT: low bracket

QUERY: For the record `Cc1cn(CCOC(=O)[C@]23CCC(C)(C)C[C@H]2C2=CC[C@@H]4[C@@]5(C)CC[C@H](O)C(C)(C)[C@@H]5CC[C@@]4(C)[C@]2(C)CC3)c(=O)n(CCOC(=O)[C@]23CCC(C)(C)C[C@H]2C2=CC[C@@H]4[C@@]5(C)CC[C@H](O)C(C)(C)[C@@H]5CC[C@@]4(C)[C@]2(C)CC3)c1=O` , report the class its IC50 corresponds to.
RESULT: middle bracket

* * *

For each record, write down the corresponding pIC50.
# experimentalProtocol: Cytotoxicity against human BGC823 cells assessed as inhibition of cell proliferation after 72 hrs by MTT assay
# Format: functional, cell-based
# assaySetup: BGC-823, 72 h
Give bare numbers, as −log10 of the molar value.

CC1(C)CC[C@]2(C(=O)O)CC[C@]3(C)C(=CC[C@@H]4[C@@]5(C)CC[C@H](O)C(C)(C)[C@@H]5CC[C@]43C)[C@@H]2C1 | 4.62
CC1(C)CC[C@]2(C(=O)OCCn3ccc(=O)n(CCOC(=O)[C@]45CCC(C)(C)C[C@H]4C4=CC[C@@H]6[C@@]7(C)CC[C@H](O)C(C)(C)[C@@H]7CC[C@@]6(C)[C@]4(C)CC5)c3=O)CC[C@]3(C)C(=CC[C@@H]4[C@@]5(C)CC[C@H](O)C(C)(C)[C@@H]5CC[C@]43C)[C@@H]2C1 | 6.07
Cc1cn(CCOC(=O)[C@]23CCC(C)(C)C[C@H]2C2=CC[C@@H]4[C@@]5(C)CC[C@H](O)C(C)(C)[C@@H]5CC[C@@]4(C)[C@]2(C)CC3)c(=O)[nH]c1=O | 6.80
CC1(C)CC[C@]2(C(=O)OCCn3ccc(=O)[nH]c3=O)CC[C@]3(C)C(=CC[C@@H]4[C@@]5(C)CC[C@H](O)C(C)(C)[C@@H]5CC[C@]43C)[C@@H]2C1 | 6.43
CC1(C)CC[C@]2(C(=O)OCCCCCCn3ccc(=O)n(CCCCCCOC(=O)[C@]45CCC(C)(C)C[C@H]4C4=CC[C@@H]6[C@@]7(C)CC[C@H](O)C(C)(C)[C@@H]7CC[C@@]6(C)[C@]4(C)CC5)c3=O)CC[C@]3(C)C(=CC[C@@H]4[C@@]5(C)CC[C@H](O)C(C)(C)[C@@H]5CC[C@]43C)[C@@H]2C1 | 6.17

Go through the list and state pIC50 for each entry.
1. Cc1cn(CCCCCCCCOC(=O)[C@@]23CCC(C)(C)C[C@@H]2C2=CC[C@H]4[C@]5(C)CC[C@@H](O)C(C)(C)[C@H]5CC[C@]4(C)[C@@]2(C)CC3)c(=O)n(CCCCCCCCOC(=O)[C@@]23CCC(C)(C)C[C@@H]2C2=CC[C@H]4[C@]5(C)CC[C@@H](O)C(C)(C)[C@H]5CC[C@]4(C)[C@@]2(C)CC3)c1=O
2. CC1(C)CC[C@]2(C(=O)OCCCCCCCCn3ccc(=O)n(CCCCCCCCOC(=O)[C@]45CCC(C)(C)C[C@H]4C4=CC[C@@H]6[C@@]7(C)CC[C@H](O)C(C)(C)[C@@H]7CC[C@@]6(C)[C@]4(C)CC5)c3=O)CC[C@]3(C)C(=CC[C@@H]4[C@@]5(C)CC[C@H](O)C(C)(C)[C@@H]5CC[C@]43C)[C@@H]2C1

RESULT:
1. 5.51
2. 6.57
